Please provide measured TGI for the entries that follow.
Test system: SF-268 CNS
Protocol details: NCI tumour cell line growth inhibition, 48 h

Report TGI on SF-268 CNS for this entry: CC(=O)/C(=C\c1cccc([N+](=O)[O-])c1)C(=O)Nc1ccccc1C
> 100 µM

Report TGI on SF-268 CNS for this entry: CC(=O)[C@@]12O[C@@H]1CC1C3CCC4=CC(O)CCC4(C)C3CCC12C (stereo partly drawn)
> 100 µM

Report TGI on SF-268 CNS for this entry: C=C1NC(=O)C(C(C)CC)NC(=O)C2CSCC(NC(=O)CCC(=O)O)C(=O)NC(Cc3ccccc3)C(=O)NC(C)C(=O)NC(CC(C)CC)C(=O)NC(C(=O)NC(Cc3ccccc3)C(=O)N3CCCC3C(=O)N2)C(C)OC(=O)C(CO)NC(=O)C(C(O)COC)N(C)C(=O)C(C(C)C)NC(=O)C(CC(C)CC)NC1=O (stereo not drawn)
> 6 µM

---

Test system: SNB-75 CNS
Protocol details: NCI tumour cell line growth inhibition, 48 h; in the data active = GI50 below about 0.43 µM; inactive = the rest
Could you please pick one outcome from this set? active, inactive

Could you kindly confirm the outcome this assay logged for COc1ccc(/C=C(/C#N)n2nnc3cccc(F)c32)cc1 ?
active

Could you kindly confirm the outcome this assay logged for O=C(CCc1nnc2sc(-c3ccc(Cl)cc3Cl)nn12)c1nc2ncccc2[nH]1 ?
inactive

Could you kindly confirm the outcome this assay logged for Fc1cc2[nH]ncc2c2c3c(c(-c4cn[nH]c4)nc12)CCCC3 ?
inactive

---

System: SK-MEL-28 melanoma
Protocol details: NCI tumour cell line growth inhibition, 48 h; in the data active = GI50 below about 0.43 µM; inactive = the rest
Could you please pick one outcome from this set? active, inactive

Could you kindly confirm the outcome this assay logged for O=C(CSc1ccc(Cl)cc1)Nc1ccc(-c2nc3ccccc3s2)c(Cl)c1 ?
inactive

Could you kindly confirm the outcome this assay logged for CCCCCCCC(=O)SCC/C=C/[C@@H]1CC(=O)NCc2cc(ccn2)C2=N[C@@](C)(CS2)C(=O)N[C@@H](C(C)C)C(=O)O1 ?
active

Could you kindly confirm the outcome this assay logged for [Cl-].[La+3].[O-]/N=C(\c1ccccc1)c1ccccn1.[O-]/N=C(\c1ccccc1)c1ccccn1.[O-]/N=C(\c1ccccc1)c1ccccn1 ?
inactive

Could you kindly confirm the outcome this assay logged for OCC#Cc1ccccc1C#Cc1ccccc1 ?
inactive

Could you kindly confirm the outcome this assay logged for COc1cccc(-c2nc(-c3ccc(NC(=O)C(C)C)cc3)[nH]c2-c2ccnc(Br)c2)c1 ?
inactive

Could you kindly confirm the outcome this assay logged for Fc1cc2[nH]ncc2c2c3c(c(-c4cn[nH]c4)nc12)CCCC3 ?
inactive

Could you kindly confirm the outcome this assay logged for CCN(CC)c1ccc(-c2cc(-c3cc(OC)c(OC)c(OC)c3)nc(N3CCOCC3)c2C#N)cc1 ?
inactive

Could you kindly confirm the outcome this assay logged for COc1cc2c3c(n(C)c(=O)c2cc1OC)-c1cc2c(cc1/C3=C\CCCN)OCO2 ?
inactive

Could you kindly confirm the outcome this assay logged for CN1CCN(CCCn2c(=O)c3sc4ncccc4c3n3nnc(-c4ccccc4)c23)CC1 ?
inactive

Could you kindly confirm the outcome this assay logged for COc1ccc(-c2nnc(COc3ccc(C(=O)/C=C/c4ccco4)cc3)o2)cc1 ?
inactive

---

Please provide measured GI50 for the entries that follow.
Tested on: T-47D breast
Protocol details: NCI tumour cell line growth inhibition, 48 h

Specify reported GI50 for the molecule shown: O=C(Nc1ccc(Cl)cc1)c1cccc(NC2=C(Cl)C(=O)N(Cc3ccccc3)C2=O)c1
11.4 µM

Specify reported GI50 for the molecule shown: O=C(CSc1ccc(Cl)cc1)Nc1ccc(-c2nc3ccccc3s2)c(Cl)c1
2.54 µM

Specify reported GI50 for the molecule shown: Cc1cccc(NC(=O)Cn2cnc3sc(C(=O)OC(C)C)c(C)c3c2=O)c1
> 50 µM

---

Please provide measured TGI for the entries that follow.
Tested on: LOX IMVI melanoma
Protocol details: NCI tumour cell line growth inhibition, 48 h

Specify reported TGI for the compound shown: NS(=O)(=O)c1cc(Br)c(N=Nc2ccc(O)c3ncccc23)c(Br)c1
> 100 µM

Specify reported TGI for the compound shown: CCOC(=O)c1c(C)nc2c3ccccc3c(C#N)c(C)n12
> 100 µM

Specify reported TGI for the compound shown: CCOC(=O)c1ccc(NCC#CCN2CCOCC2)cc1
> 100 µM

Specify reported TGI for the compound shown: N#CC(C#N)=CNC(N)=S
> 100 µM

Specify reported TGI for the compound shown: O=C(O)CCC(=O)OC1N=C(c2ccccc2Cl)c2cc([N+](=O)[O-])ccc2NC1=O (configuration not stated)
> 100 µM

Specify reported TGI for the compound shown: CCCCC(C(=O)NCCNC(=O)CCC(=O)N(C)O)C(=O)NCCNC(=O)CCC(=O)N(C)O
> 100 µM

Specify reported TGI for the compound shown: CN(C)c1nc(=Nc2ccc(N=c3nc(N(C)C)ss3)cc2)ss1
> 67.9 µM

Specify reported TGI for the compound shown: NC1(C(=O)OCc2ccccc2)CCCC1
37.7 µM

Specify reported TGI for the compound shown: CCNC(=O)Cc1nc2c(N)ncnc2n1C1OC(CO)C(O)C1O (configuration not stated)
> 100 µM

Specify reported TGI for the compound shown: COc1cc2c(c(OC)c1OC)-c1ccc(OC)c(=O)cc1C(NC(=O)c1ccc(N=[N+]=[N-])cc1)CC2 (configuration not stated)
24.9 µM

Specify reported TGI for the compound shown: N=Nc1c(OC(=O)Nc2cccc(Cl)c2)[nH]c2ccccc12
20.8 µM

Specify reported TGI for the compound shown: Cc1ccc(S(=O)(=O)N/N=C/C2(c3ccccc3)c3ccccc3-c3ccccc32)cc1
26.1 µM

Specify reported TGI for the compound shown: O=C1NCC2(CCN(CCCC3(c4ccc(F)cc4)OCCO3)CC2)N1c1ccccc1
> 100 µM

Specify reported TGI for the compound shown: CCN(CCCN(CC)C(=O)Nc1c(C)cccc1C)C(=O)Nc1c(C)cccc1C
> 100 µM

Specify reported TGI for the compound shown: CO[C@H]1/C=C(/C)CCC[C@H](C)[C@H](O)[C@@H](C)C(=O)C(C)(C)[C@@H](O)CC(=O)O[C@@H]1/C(C)=C/c1csc(C)n1
> 100 µM

Specify reported TGI for the compound shown: C[Si](C)(C)C1(Sc2ccccc2)SCCCS1
> 100 µM

Specify reported TGI for the compound shown: Cc1cccc(NC(=O)Cn2cnc3sc(C(=O)OC(C)C)c(C)c3c2=O)c1
35.9 µM

---

Test system: NCI-H226 lung
Protocol details: NCI tumour cell line growth inhibition, 48 h
Please provide measured TGI for the entries that follow.

Specify reported TGI for the molecule shown: CS(=O)c1ncc2c(n1)-c1ccccc1OC2 (centres undefined)
> 100 µM

Specify reported TGI for the molecule shown: O=C1c2ccccc2-c2c1c(-c1ccc(F)cc1)nc1ccc3ccccc3c21
> 100 µM

Specify reported TGI for the molecule shown: CCOC(=O)c1cn2c(nc1=O)N[C@H]1CCCC[C@@H]12
> 100 µM

Specify reported TGI for the molecule shown: CCN(CCCN(CC)C(=O)Nc1c(C)cccc1C)C(=O)Nc1c(C)cccc1C
> 100 µM

Specify reported TGI for the molecule shown: CCOP(=O)(OCC)C(c1ccc(F)cc1)N(C(=O)NC(F)(F)F)c1ccc(OC)cc1 (centres undefined)
> 100 µM

Specify reported TGI for the molecule shown: c1c[nH]c(-c2ccc(-c3ccc[nH]3)c3nsnc23)c1
> 100 µM

Specify reported TGI for the molecule shown: O=[N+]([O-])c1ccc(Oc2c(Cl)cc(S(=O)(=O)/N=C(\NO)Nc3ccc(Cl)cc3)cc2Cl)cc1
35.3 µM

Specify reported TGI for the molecule shown: C=CCSc1nnc2cc(CN3CCCC3)c(-c3ccc(Cl)cc3)nn12
26.7 µM

Specify reported TGI for the molecule shown: CC1=NN(c2cccc(Cl)c2)C2(SCC(=O)N2c2nc3ccccc3s2)/C1=C\c1ccccc1O (centres undefined)
> 100 µM

---

Test system: UACC-62 melanoma
Protocol details: NCI tumour cell line growth inhibition, 48 h
Please provide measured TGI for the entries that follow.

Report TGI on UACC-62 melanoma for this entry: O=S1(=O)OCCOS(=O)(=O)C1Br
> 100 µM

Report TGI on UACC-62 melanoma for this entry: CCOC(=O)NC(=O)c1cn(CCCO)c(=O)[nH]c1=O
> 100 µM

Report TGI on UACC-62 melanoma for this entry: CCCCCCN(CCCCCC)C(=O)Cc1c2n(c3ccccc13)Cc1ccccc1-2
> 100 µM

---

System: MDA-MB-231 breast
Protocol details: NCI tumour cell line growth inhibition, 48 h
Quantity: TGI

Specify reported TGI for the compound shown: O=C1c2ccccc2-c2c1c(-c1ccc(F)cc1)nc1ccc3ccccc3c21
> 100 µM

Specify reported TGI for the compound shown: CCCCC(C(=O)NCCNC(=O)CCC(=O)N(C)O)C(=O)NCCNC(=O)CCC(=O)N(C)O
> 100 µM

Specify reported TGI for the compound shown: O=c1[nH]c(=O)n(C2OC(CO)C(O)C2O)c2nc(-c3ccc(-c4ccccc4)cc3)cnc12 (stereo not drawn)
> 100 µM

Specify reported TGI for the compound shown: COP(=O)(/C=C/c1cc(C(=O)OCc2ccccc2)n(S(=O)(=O)c2ccccc2)c1)OC
> 100 µM

Specify reported TGI for the compound shown: CC1CCC(C(=O)O)(C(Br)C(=O)O)CC1 (stereo not drawn)
> 100 µM

Specify reported TGI for the compound shown: CN(C)C1(N(C)C)Oc2c(c(=O)n(C)c(=O)n2C)C(c2ccc(Br)cc2)C1(F)F (stereo not drawn)
> 100 µM

Specify reported TGI for the compound shown: O=C(Nc1nccs1)c1c(O)nc2sccn2c1=O
> 10 µM

Specify reported TGI for the compound shown: NS(=O)(=O)c1cc2c(cc1Cl)NC(CCC(=O)O)=NS2(=O)=O
> 100 µM

Specify reported TGI for the compound shown: CSC(=S)N(C)C
> 100 µM

Specify reported TGI for the compound shown: NS(=O)(=O)c1cc(Cl)c(NC(=S)NC(=O)Nc2ccc(Cl)c(Cl)c2)c(Cl)c1
> 100 µM

Specify reported TGI for the compound shown: CCOP(=O)(OCC)C(c1ccc(F)cc1)N(C(=O)NC(F)(F)F)c1ccc(OC)cc1 (stereo not drawn)
> 100 µM

Specify reported TGI for the compound shown: Cc1nc(N)c(N2CCN([N+](=O)[O-])CC2)c(=O)[nH]1
> 100 µM

Specify reported TGI for the compound shown: COc1cc(NCc2ccc3oc(=O)c(-c4ccccc4)nc3c2)cc(OC)c1OC
> 10 µM
